Target: DRB1*0301 (Homo sapiens, UniProt P01903+P01911, A100K/A102G/A103R/A169T/F55Y/I96L/K41T/L162R/M171V/P40S/Q125H/Q178H/Q39Y/R42S/S66N/T106N/T262R/W38E/Y61H)
Sequence (P01903 26-254 limits assumed, other chains not shown): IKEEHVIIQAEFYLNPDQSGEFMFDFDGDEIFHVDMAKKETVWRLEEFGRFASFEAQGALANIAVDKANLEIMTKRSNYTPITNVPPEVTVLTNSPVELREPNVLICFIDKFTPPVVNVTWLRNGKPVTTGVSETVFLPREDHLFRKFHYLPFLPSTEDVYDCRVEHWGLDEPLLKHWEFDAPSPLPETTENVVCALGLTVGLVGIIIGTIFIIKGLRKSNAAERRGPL
Assay: biochemical
Type: binding
No end group written: not given here.
Note: every record was labeled by where its IC50 sits among group 1 = under 0.09 µM, group 2 = from 0.09 µM up to 6 µM, group 3 = 6 µM and over

Sequence Data | Class Assignment
SEVYDFVFADLRIVY [Peptide 1543.48] | group 1
LCVNSTASDLRTIQQ [Peptide 1543.15] | group 3
RLTVAKGLSTLLHVP [Peptide 89.0028] | group 3
VVTIPNSVQISVGYM [Peptide 1601.41] | group 3
ISEVYGDTPEWIQRQ [Peptide 90.0035] | group 1
GQVIVCPASVSSNEV [Peptide 90.0016] | group 3
IIHLKGDKNSLKCLR [Peptide 90.0218] | group 1
TPEWIQRLTIIQHGI [Peptide 89.0030] | group 3
LKAICIENNSKTAKR [Peptide 90.0064] | group 1
QWAYDNDIVDDSEIA [Peptide 90.0036] | group 2
HKAIELQMALKGLAQ [Peptide 90.0004] | group 1
IHFIQGAVISFVNST [Peptide 89.0037] | group 3
RLNVCQDKILTHYEN [Peptide 90.0160] | group 2
AFQVIELQMALETLN [Peptide 90.0024] | group 2
FLDVVTIPNSVQISV [Peptide 1601.40] | group 3
GVNHQHLPARRAEPQ [Peptide 1543.05] | group 3
FKYFKEDAAKYSKTQ [Peptide 90.0206] | group 2
DICNTMHYTNWTHIY [Peptide 1601.04] | group 3
IIHLKGDPNSLKCLR [Peptide 90.0228] | group 1
PEWIQRLTIIQHGID [Peptide 89.0031] | group 2
RVCLLFYSKVRKYRY [Peptide 1543.54] | group 1
QIQVFETLEET [Peptide 1385.01] | group 3
LYCYEQLSDSSDEDE [Peptide 1543.13] | group 3
NCILLYGAANTGKSL [Peptide 89.0017] | group 3
CMLIQPPKLRSTAAA [Peptide 89.0047] | group 2
VMFLRYQGVEFMSFL [Peptide 89.0014] | group 3

====

Biological target: A*2902 (Homo sapiens, UniProt P04439, A270S/D101N/D185E/E176V/E277Q/E87Q/F33T/G231S/H175R/I121M/I218V/I322F/K168Q/L300P/L318F/M331R/P208A/P217A/Q86L/T323A/T345S/V100A/V358M)
Assay: biochemical
Assay type: binding
No end group written: not given here.
Measure Name: IC50 (µM)

Sequence Data | Inequality Operator | Result
CTSASNPSPQY [Peptide 9012.0170] | > | 20
RTDSVILNVLY [Peptide 9012.0162] | = | 0.954
ATDVSHRGLY [Peptide 1593.10] | = | 1.62
VSEFRWYRY [Peptide 1549.02] | = | 1.52
VTQGLPREY [Peptide 9012.0128] | = | 1.01
QAEPDRAHY [Peptide 78.0244] | > | 20
CTDKILEHY [Peptide 1593.14] | > | 20

====

Target: A*6802 (Homo sapiens, UniProt P04439, A269V/D140Y/D185E/E176V/E277Q/E87N/F33Y/G231S/I121R/I166T/I218V/L180W/L300P/L318F/N151K/P208A/P217A/Q86R/R138H/R169H/S129P/T345S/V36M)
Assay: biochemical
Type: binding
pIC50: −log10 of the molar value. No end group written: not given here.

Sequence Data | Inequality Operator | pIC50
FLGALKSFV [Peptide 1593.56] | = | 6.09
TVTTITVYV [Peptide 9013.0068] | = | 8.52
IVNTTYLWWV [Peptide 9013.0196] | = | 7.15
RTTVKTITVSV [Peptide 9013.0318] | = | 8.85
WLNNQSLPV [Peptide 9013.0070] | = | 6.71
SLPVSPRLQV [Peptide 9013.0222] | < | 4.70
NVAEGKEVV [Peptide 9013.0015] | = | 6.45
EVQNTTYLWWV [Peptide 9013.0326] | = | 7.47
FLVAFKQFL [Peptide 1578.42] | = | 5.85
QLSNGNRTL [Peptide 9013.0050] | = | 5.06
FLSGCVISYV [Peptide 1578.32] | = | 6.99
VLFTCEPET [Peptide 9013.0045] | < | 4.70
IQNDTGFYTV [Peptide 9013.0149] | = | 5.05
VIKSDLVNEEV [Peptide 9013.0278] | < | 4.70
WQRLLLTASV [Peptide 9013.0115] | < | 4.70
VLAEAMSRV [Peptide 1516.10] | = | 6.31
FQQSTQELFV [Peptide 9013.0178] | < | 4.70
VLAEAMAAA [Peptide 1516.12] | = | 6.19
RMLQQLLFI [Peptide 1525.12] | = | 4.73
ILNTTYLWWV [Peptide 9013.0195] | = | 4.80
ALYWYRTGM [Peptide 86.0189] | < | 4.70
RILQHLLFA [Peptide 1525.24] | < | 4.70
LLFWNPPTTA [Peptide 9013.0123] | = | 5.67
LLLTASLLV [Peptide 9013.0002] | < | 4.70
IIQNDTGFYV [Peptide 9013.0146] | = | 5.59
FIQGAVISFV [Peptide 1578.12] | = | 6.40

====

pIC50 values for the sequences below.
Biological target: A*6801 (Homo sapiens, UniProt P04439, A269V/D185E/E176V/E277Q/E87N/F33Y/G231S/I121M/I166T/I218V/L180W/L300P/L318F/N151K/P208A/P217A/Q86R/R169H/T345S)
Experiment: biochemical
Assay type: binding
pIC50: −log10 of the molar value. No end group written: not given here.

Sequence Data | Inequality Operator | pIC50
ISWLGLRSLK [Peptide 9012.0234] | = | 7.41
RFLSKISEYR [Peptide 1571.13] | = | 7.77
RTHSSHLKSKK [Peptide 1556.76] | = | 5.87
AFRDLCIVYR [Peptide 78.0079] | = | 6.22
KLTEDRWNK [Peptide 9017.0108] | < | 4.70
WTIAYIEYR [Peptide 9017.0116] | = | 8.07
RQMSMGQWIK [Peptide 1587.35] | = | 5.65

====

Molecular target: DR4w4 (DRB1*0401) (Homo sapiens, UniProt P01903+P01911, A100K/A169T/F76Y/I96L/K127E/L162R/M171V/N62H/P40V/Q125Y/R42H/S133A/S149N/S66Y/V115G/V209L/W38E)
Experiment: biochemical
Assay type: binding
IC50 values for the compounds below.

Compound | Inequality Operator | IC50, nM
CC[C@H](C)[C@H](NC(=O)[C@@H]1CCCN1C(=O)[C@H](CCC(N)=O)NC(=O)[C@@H](N)Cc1c[nH]c2ccccc12)C(=O)N1CCC[C@H]1C(=O)N[C@H](C(=O)N[C@@H](Cc1c[nH]cn1)C(=O)N[C@H](C(=O)N[C@H](C(=O)N1CCC[C@H]1C(=O)N[C@@H](CC(C)C)C(=O)N[C@@H](CO)C(=O)N[C@@H](CCC(=O)O)C(=O)N[C@@H](CC(=O)O)C(=O)N[C@@H](CCC(N)=O)C(=O)O)C(C)C)[C@@H](C)O)C(C)C [Peptide 68.0039] | > | 20000
CC[C@H](C)[C@H](NC(=O)[C@H](C)NC(=O)[C@H](CCCCN)NC(=O)[C@H](Cc1c[nH]cn1)NC(=O)[C@H](C)NC(=O)[C@H](CCCCN)NC(=O)[C@H](CO)NC(=O)[C@H](CCCCN)NC(=O)[C@H](CO)NC(=O)[C@@H](NC(=O)[C@H](CC(N)=O)NC(=O)[C@H](Cc1ccc(O)cc1)NC(=O)[C@H](C)N)[C@@H](C)CC)C(=O)N[C@@H](CCC(=O)O)C(=O)N[C@@H](CC(C)C)C(=O)O [Peptide 89.0159] | > | 20000
CC[C@H](C)[C@H](NC(=O)CNC(=O)[C@@H](NC(=O)[C@H](CCCCN)NC(=O)[C@H](Cc1ccc(O)cc1)NC(=O)[C@H](Cc1c[nH]c2ccccc12)NC(=O)[C@H](Cc1ccc(O)cc1)NC(=O)[C@@H](N)CC(C)C)[C@@H](C)O)C(=O)N[C@@H](CO)C(=O)N[C@@H](CC(N)=O)C(=O)N[C@H](C(=O)N[C@@H](CO)C(=O)N[C@@H](CCC(=O)O)C(=O)N[C@H](C(=O)N[C@@H](Cc1ccc(O)cc1)C(=O)O)C(C)C)[C@@H](C)CC [Peptide 89.0009] | = | 20
CC[C@H](C)[C@H](NC(=O)[C@H](Cc1c[nH]cn1)NC(=O)[C@H](C)NC(=O)[C@H](Cc1ccc(O)cc1)NC(=O)[C@H](CC(C)C)NC(=O)[C@@H](NC(=O)[C@H](Cc1ccccc1)NC(=O)[C@@H]1CCCN1C(=O)[C@H](CCC(N)=O)NC(=O)[C@@H](NC(=O)[C@H](CC(C)C)NC(=O)[C@@H](NC(=O)[C@H](CCCCN)NC(=O)[C@@H](N)Cc1ccccc1)[C@@H](C)O)[C@@H](C)CC)[C@@H](C)CC)C(=O)N[C@@H](CCC(N)=O)C(=O)O [Peptide 89.0025] | = | 728
